# subjectOfTest: T1, 4H3664-AA
# T1 chain: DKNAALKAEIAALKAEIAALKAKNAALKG
# protocolDetails: two-hybrid library CCmax;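 further: natural log of median RNA to DNA barcode read ratio; higher means stronger binding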
# conditionNotes: mean of both orientations
measuredEndpoint: interaction score
No unit in the answer, please; the number alone is enough.

So for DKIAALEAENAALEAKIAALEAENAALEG [4H2211-AA] , the logged interaction score turned out to be -1.82

get_value(item= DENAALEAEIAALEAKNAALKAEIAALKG [4H1082-AA] , readout=interaction score) returns -1.83

Reported interaction score of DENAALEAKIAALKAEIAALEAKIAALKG [4H1350-AA] : 0.037

The measured interaction score associated with DKIAALKAKIAALKAKNAALEAKNAALEG [4H2935-AA] reads -1.44

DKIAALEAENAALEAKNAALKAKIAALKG [4H2238-AA] has a reported interaction score of -1.15

Record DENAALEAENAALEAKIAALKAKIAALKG [4H1198-AA] , field interaction score: 1.22

Consider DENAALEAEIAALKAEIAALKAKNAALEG [4H1103-AA] . Its measured interaction score is 2.17

Given item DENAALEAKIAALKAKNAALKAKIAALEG [4H1405-AA] , the value recorded as its interaction score is -1.67

// interaction score value for DKIAALKAENAALEAKIAALEAKIAALKG [4H2726-AA] : -1.05

interaction score for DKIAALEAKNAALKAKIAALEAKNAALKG [4H2536-AA] is -1.51

Record DKIAALKAEIAALEAKNAALEAKIAALKG [4H2614-AA] . Reported interaction score: -1.11

// sample DEIAALEAKIAALKAEIAALEAKNAALEG [4H327-AA] , its interaction score was 0.733

Documented interaction score of DKNAALKAEIAALEAENAALEAKIAALEG [4H3605-AA] : -1.67
